- Test system: T-47D breast
- ASSAY_PROTOCOL: NCI-60 one-dose screen, 48 h (100 = growth as untreated, 0 = no growth, -100 = all killed)
- CONDITION_DETAILS: 10 µM unless noted
Compounds without any hit were thinned out: in the full panel of roughly 83,000, 20% have a hit.
MEASUREMENT_KIND: growth (%)
Respond numerically; units are % and should not be typed.

Reference set (5 entries):
>>> observed_measurement("O=C(N/N=C/c1ccc(Cl)cc1)c1ccc(OCc2nc3ccc(Cl)cc3[nH]2)cc1")
-19.6
>>> observed_measurement("CCC(=O)c1c2c(c3ccc4c5ccccc5ccc4n13)C(=O)c1ccccc1C2=O")
87.2
>>> observed_measurement("CC1=C(C(=O)OCc2ccccc2)C(c2cccc3ccccc23)n2c(nc3ccccc32)N1 (configuration not stated)")
30.2
>>> observed_measurement("COc1ccc(C(=O)c2cc(C(C)=O)c3c(C)cc(C)cn23)cc1")
48.6
>>> observed_measurement("CS(=O)(=O)Nc1cc(-c2ccc3ncnc(Nc4ccc(OCc5cccnc5)c(Cl)c4)c3c2)cnc1Cl")
-39

Quick check: growth of Fc1cccc(CNc2nc(SCCN3CCOCC3)nc3c2cnn3CC(Cl)c2ccc(Br)cc2)c1 (configuration not stated) ? 1.04

How about this molecule: O=C(CSc1nc2ccccc2c(=O)[nH]1)Nc1ccccc1C(=O)O 93.9

How about this molecule: FC(F)(F)c1cc2c(Cl)ncnc2n1CCC1CCOCC1 66.6

How about this molecule: Cc1ccc(NC(=O)N/N=C/c2c[nH]c3ccccc23)c(C)c1 46.7

How about this molecule: O=C1Nc2cc(-c3ccc(NS(=O)(=O)c4ccc(-c5ccccc5)cc4)cc3)ccc2/C1=C/c1ccc[nH]1 3.17

How about this molecule: O=C(O)CC1S/C(=N/N=C/c2nc3ccccc3s2)NC1=O (configuration not stated) 85.4

How about this molecule: C=CCn1c(O)c(N=Nc2nc(-c3cc4ccccc4oc3=O)cs2)c2ccccc21 88.8

How about this molecule: Cn1cc(Nc2ncnc(-c3ccc(N4CCCC4)c(C#N)c3)n2)cn1 84.9

###

- Test system: ACHN renal
- ASSAY_PROTOCOL: NCI-60 one-dose screen, 48 h (100 = growth as untreated, 0 = no growth, -100 = all killed)
- CONDITION_DETAILS: 10 µM unless noted
The panel holds about 83,000 compounds, 20% with a hit somewhere; the sample as a whole holds those more often.
MEASUREMENT_KIND: growth (%)
Respond numerically; units are % and should not be typed.

>>> observed_measurement("CN(C)CCCNC(=S)Nc1ccc(/C=C/c2ccc(Cl)cc2)cc1")
-97.6
>>> observed_measurement("Cn1cc(-c2cc3nc(-c4c[nH]c5ccccc45)cc(N)n3n2)c2ccccc21")
-73.9
>>> observed_measurement("O=[N+]([O-])c1cccc(-c2nnc3c(/C=C/c4ccc(F)cc4)nc4ccccc4n23)c1")
93.8

Quick check: growth of O=C1Nc2ccccc2/C1=C\c1ccc(OCC(=O)c2ccc(Br)cc2)cc1 ? 70

How about this compound: COc1ccc(-c2nc3ccc(-c4nnc(SCC(=O)Nc5ccc(/C(C)=N\O)cc5)o4)cc3[nH]2)cc1 85.9

How about this compound: COc1ccc(-c2cc(C(=O)OCc3ccc(Br)cc3)nn2-c2ccc(S(C)(=O)=O)cc2)cc1OC 85.1

How about this compound: COc1cc(/C=C/C(=O)c2cnn(-c3cc(=O)[nH]c4ccc(Br)cc34)c2C)cc(OC)c1OC -34.9

How about this compound: c1n[nH]cc1-c1nc2ccc3[nH]ncc3c2c2c1CC1(CCOCC1)CC2 22.1

How about this compound: COc1ccc(-c2nc3ccc(-c4nnc(SCc5ccccc5)o4)cc3[nH]2)cc1OC -45.4

How about this compound: N#CC1=C(c2ccco2)Nc2c(c(-c3ccccc3)nn2-c2ccccc2)C12C(=O)Nc1ccc(Cl)cc12 (configuration not stated) 8.94

###

- System: RPMI-8226 leukemia
- ASSAY_PROTOCOL: NCI-60 one-dose screen, 48 h
- CONDITION_DETAILS: 10 µM unless noted
Compounds without any hit were thinned out: in the full panel of roughly 83,000, 20% have a hit. Active and inactive are the calls of the source. The calls were made as follows: active = growth percent below 10; inactive = the rest.
Lab note: assign the record to one of active, inactive

>>> assigned_label("S=C(NCCc1ccccc1)Nc1ccc(OCc2nc3ccc(Cl)cc3[nH]2)cc1")
"active"
>>> assigned_label("COc1ccc2[nH]cc(-c3cc4nc(-c5cn(C)c6ncc(Br)cc56)cc(N)n4n3)c2c1")
"active"
>>> assigned_label("O=C(NN1C(=O)/C(=C/C=C/c2ccc([N+](=O)[O-])o2)SC1=S)c1ccncc1")
"active"
>>> assigned_label("O=C(Cn1c(-c2ccccc2)nc2ccccc21)N=Nc1c(O)[nH]c2ccc(Cl)cc12")
"inactive"
>>> assigned_label("CCN(C(=O)CN1C(=O)/C(=C/c2ccco2)SC1=S)C1CCS(=O)(=O)C1 (stereo not drawn)")
"inactive"
>>> assigned_label("O=C(Nc1ccc(F)cc1)Nc1nc2ccc([N+](=O)[O-])cc2s1")
"active"

Record lookup: outcome of this test for COc1ccc(CCC2NCCc3c(Br)c4c(c(OC)c32)OCO4)cc1 (stereo not drawn) ? inactive

How about this compound: CCCCNC(=S)Nc1ccc(OCc2nc3ccc(Cl)cc3[nH]2)cc1 active

###

Listed here are molecules together with their documented growth.
- System: MALME-3M melanoma
- ASSAY_PROTOCOL: NCI-60 one-dose screen, 48 h (100 = growth as untreated, 0 = no growth, -100 = all killed)
- CONDITION_DETAILS: 10 µM unless noted
Compounds without any hit were thinned out: in the full panel of roughly 83,000, 20% have a hit. Calls of active or inactive are those of the source. How the source made its calls: active means growth percent below 10; inactive means the rest.

Quick check: growth of CC1=C(C(=O)OC(C)C)C(c2ccc(O)cc2)NC(=O)N1 (stereo unspecified) ? 102% (inactive)

How about this molecule: O=C(O)CC1S/C(=N/N=C/c2nc3ccccc3s2)NC1=O (stereo unspecified) 107% (inactive)

How about this molecule: Nc1nc(-c2ccccc2)c(N=Nc2ccc(Cl)cc2Cl)s1 -47.5% (active)

How about this molecule: O=C(Nc1nc2ccccc2s1)Nc1ccccc1Cl 79.7% (inactive)

How about this molecule: COc1cc(/C=C/C(=O)c2cnn(-c3cc(=O)[nH]c4ccc(Cl)cc34)c2C)cc(OC)c1OC -20.4% (active)

How about this molecule: CS(=O)(=O)Nc1cncc(-c2ccc3ncnc(NCc4ccccc4)c3c2)c1 27.8% (inactive)

###

- Tested on: SK-MEL-2 melanoma
- ASSAY_PROTOCOL: NCI-60 one-dose screen, 48 h (100 = growth as untreated, 0 = no growth, -100 = all killed)
- CONDITION_DETAILS: 10 µM unless noted
- Protocol: Growth inhibition of the SK-MEL-2 human tumor cell line is measured as a screen for anti-cancer activity. Cells are grown in 96 well plates and exposed to the test compound for 48 hours. Compounds are tested at a single concentration, which is 10^-5 M for most compounds. The reported endpoint is percent growth (GI% or GIPRCNT), where numbers from 0 - 100% represent growth inhibition, and numbers from -100% - 0 represent cell death. For example, a value of 40 represents 60% growth inhibition. […]
This is part of a sample that, as a whole, favours compounds with a hit. Of some 83,000 tested, about 20% had one in any assay.
Range-based classes on measured growth: low = under 40%, moderate = from 40% up to 80%, high = 80% and over

>>> assigned_label("O=C(N/N=C/c1ccc(-c2cccc([N+](=O)[O-])c2)s1)c1[nH]c2ccc(Br)cc2c1-c1ccccc1")
"high"

# classify by growth band: Cc1ccc(NC(=O)N/N=C/c2c[nH]c3ccccc23)c(C)c1 low

How about this compound: O=C(Cn1c(/C=C/c2ccc([N+](=O)[O-])cc2)nc2ccccc2c1=O)Nc1ccccc1 moderate

How about this compound: Cc1cn(-c2cc(NC(=O)c3ccc(C)c(-n4cc(-c5cnc6cccnn56)nn4)c3)cc(C(F)(F)F)c2)cn1 moderate

How about this compound: COC(=O)c1cc(C(=O)C(F)(F)F)n2c3ccccc3c3ccccc3c12 high

How about this compound: O=C(CSc1nc2ccccc2c(=O)[nH]1)Nc1ccccc1C(=O)O high

How about this compound: N#Cc1ccc(C(=O)NNC(=O)CSc2nc3sc4c(c3c(=O)n2-c2ccc(Cl)cc2)CCCC4)cc1 high

How about this compound: C[C@@H]1CN(c2ccc3ncc(C#Cc4cncc(C(=O)Nc5ccc(CN6CCN(C)CC6)c(C(F)(F)F)c5)c4)n3n2)C[C@@H](C)O1 low

How about this compound: CNc1nc2ccccc2n2c(-c3ccc(O)c(O)c3)cnc12 low

How about this compound: O=C(Nc1ccc(-c2ccc3c(c2)NC(=O)/C3=C\c2ccc[nH]2)cc1)Nc1ccc(Cl)c(C(F)(F)F)c1 low

How about this compound: CC1=C(C(=O)OCc2ccccc2)C(c2cccc3ccccc23)n2c(nc3ccccc32)N1 (stereo unspecified) low

How about this compound: C/C(=N/O)c1ccc(NC(=O)CSc2nnc(-c3ccc4nc(-c5ccc(Cl)cc5)[nH]c4c3)o2)cc1 moderate

How about this compound: CN(C)c1nc(NCCNS(=O)(=O)c2ccc(C(=O)/C=C/c3ccc(Cl)cc3)cc2)nc(N2CCOCC2)n1 moderate

How about this compound: Cn1cc(-c2cc(N)n3nc(-c4c[nH]c5ccc(F)cc45)cc3n2)c2cc(Br)cnc21 high

How about this compound: COc1ccc(-c2cc(C(=O)OCc3ccc(Br)cc3)nn2-c2ccc(S(C)(=O)=O)cc2)cc1OC high

How about this compound: O=C(N/N=C/c1ccc(Cl)o1)c1[nH]c2ccc(Br)cc2c1-c1ccccc1 low

How about this compound: CCOC(=O)/C(F)=C/C1CC1CCc1ccc(OCC)cc1 (stereo unspecified) high

How about this compound: COc1ccccc1NC(=O)c1ccc(NC(=O)CCl)s1 low

How about this compound: O=C(CSc1nnc(-c2ccc(-c3nc4ccccc4[nH]3)cc2)o1)Nc1ccc(Cl)cc1 moderate
